The origin of these recorded values is the supplement of paper PMC11061612.

# System: NCI-H1581 (Non-Small Cell Lung Carcinoma)
# procedure summary: combination Emax (second highest fraction inhibited in the dose matrix, 72 h); higher = more inhibition; extreme values may be limits of the assay
property measured: combination Emax

compound="CCN(CCO)CCCOc1ccc2c(Nc3cc(CC(=O)Nc4cccc(F)c4)[nH]n3)ncnc2c1 [AZD2811] + C=CCn1c(=O)c2cnc(Nc3ccc(N4CCN(C)CC4)cc3)nc2n1-c1cccc(C(C)(C)O)n1 [AZD1775] (first compound max 1 µM, partner max 1 µM)" result=0.688
compound="CN(CCO)CC[C@H](CSc1ccccc1)Nc1ccc(S(=O)(=O)NC(=O)c2ccc(N3CCC([C@@H](O)c4ccccc4-c4ccc(Cl)cc4)CC3)cc2)cc1S(=O)(=O)C(F)(F)F [AZD4320] + CS(=O)(=O)CCNCc1ccc(-c2ccc3ncnc(Nc4ccc(OCc5cccc(F)c5)c(Cl)c4)c3c2)o1 [Lapatinib] (first compound max 1 µM, 7x7, partner max 10 µM)" result=0.398
compound="COc1cccc(OCCCN)c1-c1cc(Nc2cnc(C#N)cn2)n[nH]1 [Prexasertib] + CN(C)CCCOc1ccc(-c2ccc3ncc4c(c3c2)n(C2CCOCC2)c(=O)n4C)cn1 [AZD0156] (first compound max 1 µM, 7x7, partner max 1 µM)" result=0.284
compound="CC1(C)CCC(CN2CCN(c3ccc(C(=O)NS(=O)(=O)c4ccc(NCC5CCOCC5)c([N+](=O)[O-])c4)c(Oc4cnc5[nH]ccc5c4)c3)CC2)=C(c2ccc(Cl)cc2)C1 [Venetoclax] + CN(C)CCCOc1ccc(-c2ccc3ncc4c(c3c2)n(C2CCOCC2)c(=O)n4C)cn1 [AZD0156] (first compound max 1 µM, 7x7, partner max 1 µM)" result=0.182
compound="CN(CCO)CC[C@H](CSc1ccccc1)Nc1ccc(S(=O)(=O)NC(=O)c2ccc(N3CCC([C@@H](O)c4ccccc4-c4ccc(Cl)cc4)CC3)cc2)cc1S(=O)(=O)C(F)(F)F [AZD4320] + C1CN(CCC1(C(=O)N[C@@H](CCO)C2=CC=C(C=C2)Cl)N)C3=NC=NC4=C3C=CN4 [Capivasertib] (first compound max 1 µM, 7x7, partner max 3 µM)" result=0.0979
compound="Cc1c2c(nn1C)CSCc1cc(n(C)n1)CSc1cc(c3ccccc3c1)OCCCc1c(C(=O)O)n(C)c3c-2c(Cl)ccc13 [AZD5991] + C[C@@H]1COCCN1C2=NC(=NC(=C2)C3(CC3)[S@](=N)(=O)C)C4=C5C=CNC5=NC=C4 [AZD6738] (first compound max 1 µM, 7x7, partner max 10 µM)" result=1
compound="CN(CCO)CC[C@H](CSc1ccccc1)Nc1ccc(S(=O)(=O)NC(=O)c2ccc(N3CCC([C@@H](O)c4ccccc4-c4ccc(Cl)cc4)CC3)cc2)cc1S(=O)(=O)C(F)(F)F [AZD4320] + CCN(CCO)CCCOc1ccc2c(Nc3cc(CC(=O)Nc4cccc(F)c4)[nH]n3)ncnc2c1 [AZD2811] (first compound max 1 µM, 7x7, partner max 1 µM)" result=0.445
compound="CC1(C)CCC(CN2CCN(c3ccc(C(=O)NS(=O)(=O)c4ccc(NCC5CCOCC5)c([N+](=O)[O-])c4)c(Oc4cnc5[nH]ccc5c4)c3)CC2)=C(c2ccc(Cl)cc2)C1 [Venetoclax] + C[C@@H](Nc1cc(F)cc(F)c1)c1cc(C(=O)N(C)C)cc2c(=O)cc(N3CCOCC3)oc12 [AZD8186] (first compound max 1 µM, 7x7, partner max 3 µM)" result=0.182
compound="CC1(C)CCC(CN2CCN(c3ccc(C(=O)NS(=O)(=O)c4ccc(NCC5CCOCC5)c([N+](=O)[O-])c4)c(Oc4cnc5[nH]ccc5c4)c3)CC2)=C(c2ccc(Cl)cc2)C1 [Venetoclax] + C=CCn1c(=O)c2cnc(Nc3ccc(N4CCN(C)CC4)cc3)nc2n1-c1cccc(C(C)(C)O)n1 [AZD1775] (first compound max 1 µM, partner max 1 µM)" result=0.32
compound="Cc1c2c(nn1C)CSCc1cc(n(C)n1)CSc1cc(c3ccccc3c1)OCCCc1c(C(=O)O)n(C)c3c-2c(Cl)ccc13 [AZD5991] + C[C@@H](Nc1cc(F)cc(F)c1)c1cc(C(=O)N(C)C)cc2c(=O)cc(N3CCOCC3)oc12 [AZD8186] (first compound max 1 µM, 7x7, partner max 3 µM)" result=0.991
compound="Cc1cc2ncnn2cc1Nc1ncc2c(n1)n(C1CCOCC1)c(=O)n2C [AZD7648] + O=C(c1cc(Cc2n[nH]c(=O)c3ccccc23)ccc1F)N1CCN(C(=O)C2CC2)CC1 [Olaparib] (first compound max 10 µM, 7x7, partner max 10 µM)" result=0.168
compound="Cn1cnc2c(F)c(Nc3ccc(Br)cc3Cl)c(C(=O)NOCCO)cc21 [Selumetinib] + C=CCn1c(=O)c2cnc(Nc3ccc(N4CCN(C)CC4)cc3)nc2n1-c1cccc(C(C)(C)O)n1 [AZD1775] (first compound max 10 µM, partner max 1 µM)" result=0.639
